Attribution: PubChem BioAssay AID200

Measured T/C of individual entries
System: B6C3F1 mice, B16 melanoma ip, median survival T/C
assay name: NCI In Vivo Anticancer Drug Screen. Data for tumor model B16 Melanoma (intraperitoneal) in B6C3F1 mice
experimental parameters: endpoint: median survival time; dose: 6.25 mg/kg/injection; schedule: Q01DX009 (ip); vehicle: saline with Tween-80; higher = longer survival
Method: The antitumor activity of compounds was measured in mice bearing transplantable tumors. Survival or tumor size were measured and the results are expressed as the measurement made in the treated group (T) divided by the measurement made in the vehicle treated control group (C). The tumor model used in this assay is B16 Melanoma (intraperitoneal) in B6C3F1 mice
Inconclusive results and toxic doses are left out.

Nc1ccc(S(=O)(=O)c2ccc(N)cc2)cc1    103 % of control

Req: Need T/C of `O=C1c2cccc3cc([N+](=O)[O-])cc(c23)C(=O)N1CCN1CCCC1` , thanks.
Resp: 122 % of control

* * *

System: B6C3F1 mice, B16 melanoma ip, median survival T/C
assay name: NCI In Vivo Anticancer Drug Screen. Data for tumor model B16 Melanoma (intraperitoneal) in B6C3F1 mice
experimental parameters: endpoint: median survival time; dose: 50.0 mg/kg/injection; schedule: Q01DX009 (ip); vehicle: saline; higher = longer survival
Toxic doses and inconclusive results are not listed.
Measured T/C of individual entries

CCN(CC)C(=S)S    92 % of control
N=C1CCCS1    120 % of control
Clc1ncnc2c1ncn2C1CCCO1 (centres undefined)    99 % of control
O=CC(S)CO (centres undefined)    123 % of control
C1CCC(NC2CCCCC2)CC1    101 % of control

Req: Need T/C of COc1cc2cc3cc4cc(OC)c(OC)cc4c(C)[n+]3cc2cc1OC (tested in a mixture with another compound) , thanks.
Resp: 100 % of control

Req: Need T/C of `NNC(=O)c1ccncc1` , thanks.
Resp: 105 % of control

* * *

Test system: B6C3F1 mice, B16 melanoma ip, median survival T/C
assay name: NCI In Vivo Anticancer Drug Screen. Data for tumor model B16 Melanoma (intraperitoneal) in B6C3F1 mice
experimental parameters: endpoint: median survival time; dose: 50.0 mg/kg/injection; schedule: Q01DX009 (ip); vehicle: Klucel (hydroxypropylcellulose) (HPC); higher = longer survival
Inconclusive results and toxic doses are left out. Where a SMILES comes first, the peptide text is derived from it.
reported endpoint: T/C

Here are 6 compounds together with their reported answers.
CCCCCCCOc1ccc(C(=O)O)cc1    114 % of control
CCOC(=O)N(CCCCCCNC(c1ccccc1)S(=O)(=O)O)c1ccccc1 (centres undefined)    100 % of control
O=C(O)CNC(=O)C(Cc1ccccc1)NC(=O)OCc1ccccc1 (centres undefined) (HELM PEPTIDE1{[O=C(OCc1ccccc1)[*:2]].[O=C(C(Cc1ccccc1)N[*:1])[*:2]].G}$$$$V2.0)    102 % of control
CC(C)(C)Oc1ccc(CC(NC(=O)OCC2c3ccccc3-c3ccccc32)C(=O)O)cc1 (centres undefined)    107 % of control
CNc1nc(NC)nc(NC)n1    100 % of control
O=c1ssc(=Nc2ccccc2)n1-c1ccccc1    96 % of control

Req: Need T/C of CC1=NNC(=O)C1CCO (centres undefined) , thanks.
Resp: 98 % of control

Req: Need T/C of `Nc1ccc(C(=O)O)cc1` , thanks.
Resp: 100 % of control

Req: Need T/C of `Cc1ccc(NCCN(C)C)c2c(=O)c3cc(O)ccc3sc12` , thanks.
Resp: 87 % of control
